All figures here come from patent US20250171562A1.

- targetOrSystem: T1, biotinylated IgE Fc (UniProt P01854-1 104-428, biotinylated)
- T1 construct: also called IgE Fc (made in-house ALK, Denmark)
- T1 sequence (P01854 other isoform, or with tags, fused parts or gaps): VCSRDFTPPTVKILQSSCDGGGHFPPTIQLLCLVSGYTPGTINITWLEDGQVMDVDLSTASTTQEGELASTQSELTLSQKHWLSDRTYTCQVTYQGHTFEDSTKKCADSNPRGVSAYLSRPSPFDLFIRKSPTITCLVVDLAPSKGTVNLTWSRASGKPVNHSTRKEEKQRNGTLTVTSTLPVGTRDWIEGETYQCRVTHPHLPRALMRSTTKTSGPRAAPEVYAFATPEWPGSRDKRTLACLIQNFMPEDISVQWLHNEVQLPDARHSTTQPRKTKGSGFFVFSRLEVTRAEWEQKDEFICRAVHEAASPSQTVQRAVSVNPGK
- assayExplanation: BLI (Octet), IgE Fc on sensor, 1:1 fit
One threshold, 0.0004 s⁻¹, splits the recorded koff values: lower ones are satisfied, equal or higher ones are not satisfied.

binder="sdAb D1 (VHH) VHH: DVQLQESGGGLVQAGGSLRLSCAASGLTFSRCDMGWFRQAPGKEREFVARISANGASTHYADFVKGRFTISRDNAKNTVYLQMNYLKPEDTAVYICAAARVPVTWQLYDYWGQGTQVTVS" class="not satisfied"
binder="sdAb B1 (VHH) VHH: QVQLQESGGGLVQTGGSLRLSCAVHGRTFSNTGMGWFRQAPGNERQFVAIISPSGTSTYYADSVKGRFTISRDPAKNTVYLQMNSLKMDDTAVYYCAASYGSNWSTLRHQRRNEYDAWGQGTQVAVS" class="not satisfied"
binder="sdAb B3 (VHH) VHH: DVQLQESGGGLVQAGGSLRLSCAASGFIFRLAGMSWVRQAPGKGFEWVSGITMDGSTTNYADSVKGRFTISRDNSKNRLYLQMNSLKPEDTAVYYCARGAKGGYNDPRGQGTQVTVS" class=satisfied
binder="sdAb A1 (VHH, also called sdAb 026; IGE026) VHH: EVQLLESGGGLVQPGGSLRLSCAASGFTFGNYDMAWVRQAPGKRPEWVSSIDTGGDITHYADSVKGRFTISRDNAKNTLYLQMNSLRPEDTAVYWCATDEEYALGPNEFDYYGQGTLVTVSS" class=satisfied
binder="sdAb D2 (VHH) VHH: DVQLQESGGGLVEAGGSLRLSCVASGRTFSGWSMGWFRQAPGKEREFVAAISWVGSWIGGTVYSNSVKGRFTISRDNARTTVYLQMNSLKPEDTAVYFCAAANSETPRIFASEYDYWGQGTQVTVS" class="not satisfied"
binder="sdAb B2 (VHH) VHH: QVQLVESGGGLVQAGGSLRLSCAVFGSTFSNNVADWYRQAPGKQRELVARISASGATREYGDSVKGRFTISRDDAKNTMYLQMNNLKPEDTAVYRCHKIEWEDLSRKDYWGQGTQVTVS" class=satisfied
